# GI50 annotations
# Test system: OVCAR-5
# measurementNotes: NCI tumour cell line growth inhibition, 48 h
Activity calls are given as the source filed them. No stated cut-off is given here; in the data, active = GI50 up to about 1.1 µM and inactive = higher.

# molecule, measurementName, result
rows = [
    ("CC1=NN(c2ccccc2)C(=O)/C1=C1\\SC(c2ccccc2)(c2ccccc2)c2ccccc21", "GI50", "> 100 µM (inactive)"),
    ("O=C(O)c1cn2c3c(cc(N4CCN(CCO)CC4)cc3c1=O)SCC2", "GI50", "> 75.5 µM (inactive)"),
    ("O=[As](O)(O)c1ccc2nc3cc([As](=O)(O)O)ccc3nc2c1", "GI50", "> 100 µM (inactive)"),
    ("CC(=O)OC1C[C@@H](C)C2(CC(c3ccoc3)OC2=O)C2CCC(O)C3(CO3)C12CO (some centres not stated)", "GI50", "> 100 µM (inactive)"),
]

Record summary for CC1(C)OC2CC3COC(=O)C3CC2O1 (configuration not stated) : reported GI50 = > 100 µM (inactive)

Record summary for COc1ccc(C2S/C(=C\c3cccc(O)c3)C(=O)N2NC(=O)Cc2ccccc2)cc1 (configuration not stated) : reported GI50 = > 100 µM (inactive)

Record summary for OC1(c2ccc(Cl)cc2)c2ccccc2C2=NCc3ccccc3CN21 (configuration not stated) : reported GI50 = 13.1 µM (inactive)

Record summary for O=C(CCl)N1CCN(c2ccccn2)CC1 : reported GI50 = 20.7 µM (inactive)

Record summary for CCOC1NC(=O)c2ccccc21 (configuration not stated) : reported GI50 = > 100 µM (inactive)

Record summary for NNC(N)Nc1ccccc1 (configuration not stated) : reported GI50 = > 100 µM (inactive)

Record summary for CCOP(=O)(CC(=O)C1CC1)OCC : reported GI50 = > 100 µM (inactive)

Record summary for CS(=O)(=O)N1CC(CI)c2ccc(O)cc21 (configuration not stated) : reported GI50 = 2.29 µM (inactive)
